Tested on: NCI/ADR-RES
assay-text: NCI tumour cell line growth inhibition, 48 h
Active and inactive are the calls of the source. Cut-off read from the data, not from the text of the source: active = GI50 up to about 1.1 µM and inactive = higher.
attribute-measured: GI50

> print(dat)
                                    compound  experimental.system               result
 1       CCOP(=O)(OCC)/C(C#N)=C/c1cccn1C(C)C          NCI/ADR-RES  > 100 µM (inactive)
 2             Cc1ccc(/C=N\NC(=O)c2ccncc2)s1          NCI/ADR-RES  > 100 µM (inactive)
 3  O=C1CCC2(CC1CCSc1ccccc1)OCCO2 (stereo not given)          NCI/ADR-RES  > 100 µM (inactive)
 4  CC(=O)C(C(=O)c1ccc(C)cc1)[C@@H]1OC(C)(C)O[C@@H]1[C@H]1COC(C)(C)O1 (stereo not given in full)          NCI/ADR-RES   9.93 µM (inactive)
 5  C=C1CC(C)(c2cccc(Nc3nc4ccccc4c4occc34)c2)OC1=O (stereo not given)          NCI/ADR-RES      8 µM (inactive)
 6  Oc1c(Cl)cc2cc1-c1cc(cc(Cl)c1O)CCc1c(cc(Cl)c(O)c1Cl)-c1cc(Cl)c(c(Cl)c1O)/C=C\2          NCI/ADR-RES   13.7 µM (inactive)
 7  c1ccc(CN2C3C4N(Cc5ccccc5)C2C2N(Cc5ccccc5)C(C(N2Cc2ccccc2)N4Cc2ccccc2)N3Cc2ccccc2)cc1          NCI/ADR-RES  > 100 µM (inactive)
 8     Clc1nc(Cl)nc(NC23CC4CC(CC(C4)C2)C3)n1          NCI/ADR-RES     21 µM (inactive)
 9  O=C1C(CN2CCOCC2)CCCC1CN1CCOCC1 (stereo not given)          NCI/ADR-RES   2.18 µM (inactive)
10  COC(=O)C1=C(C)C=C(N2CCOCC2)C(C(=O)OC)C1c1ccccc1 (stereo not given)          NCI/ADR-RES   > 10 µM (inactive)
